Reference source for all entries: patent US20220144956A1

Molecular target: human TGFßRII (antigen of the Octet experiments) (human, UniProt P37173 23-166)
Sequence (P37173 23-166): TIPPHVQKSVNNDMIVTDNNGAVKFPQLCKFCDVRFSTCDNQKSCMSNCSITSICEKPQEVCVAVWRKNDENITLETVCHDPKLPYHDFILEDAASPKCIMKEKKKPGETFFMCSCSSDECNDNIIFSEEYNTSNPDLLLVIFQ
Assay: BLI (Octet)
Label 1.0 when Kd < 200 pM; otherwise 0.0.

H1.15 L1 XENP34471 (antibody, V domains shown) VH: QLQVQESGPGLVKPSETLSLTCTVSGGSISTSYFSWGWIRQPPGKGLEWIGSFYYGEKTYYNPSLKSRATISIDTSKSQFSLKLSSVTAADTAVYYCPRGPTMIRGVIDSWGQGTLVTVSS VL: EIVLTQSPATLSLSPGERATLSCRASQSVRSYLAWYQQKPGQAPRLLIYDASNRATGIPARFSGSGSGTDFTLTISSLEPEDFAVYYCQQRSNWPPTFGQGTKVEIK    1.0

Lab note: Kd threshold 200 pM. Does this binder come in strictly under it? H1.14 L1 XENP34470 (antibody, V domains shown) VH: QLQVQESGPGLVKPSETLSLTCTVSGGSISSSYFSWGWIRQPPGKGLEWIGSFYYGEKTYYNPSLKSRATISIDTSKSQFSLKLSSVTAADTAVYYCPRGPTMIRGVIDSWGQGTLVTVSS VL: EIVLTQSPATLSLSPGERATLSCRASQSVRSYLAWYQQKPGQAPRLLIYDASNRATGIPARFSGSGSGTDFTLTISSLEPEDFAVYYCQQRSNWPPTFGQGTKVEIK 1.0

Field: below-cutoff. Rule: recorded Kd strictly less than 200 pM. Subject: H1.34 L1 XENP34490 (antibody, V domains shown) VH: QLQVQESGPGLVKPSETLSLTCTVSGGSISNSYFSWHWIRQPPGKGLEWIGSFYYGEKTYYNPSLKSRATISIDTSKSQFSLKLSSVTAADTAVYYCPRGPTMIRGVIDSWGQGTLVTVSS VL: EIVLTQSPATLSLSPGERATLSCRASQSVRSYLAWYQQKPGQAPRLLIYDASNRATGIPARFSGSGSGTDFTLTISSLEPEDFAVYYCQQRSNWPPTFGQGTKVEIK 0.0

Given H1.33 L1 XENP34489 (antibody, V domains shown) VH: QLQVQESGPGLVKPSETLSLTCTVSGGSISNSYFSWAWIRQPPGKGLEWIGSFYYGEKTYYNPSLKSRATISIDTSKSQFSLKLSSVTAADTAVYYCPRGPTMIRGVIDSWGQGTLVTVSS VL: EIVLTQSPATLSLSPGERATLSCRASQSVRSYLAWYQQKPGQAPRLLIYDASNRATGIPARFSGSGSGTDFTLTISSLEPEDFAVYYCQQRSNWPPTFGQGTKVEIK , is recorded Kd strictly lower than 200 pM? 0.0

Here's an entry: H1.36 L1 XENP34492 (antibody, V domains shown) VH: QLQVQESGPGLVKPSETLSLTCTVSGGSISNSYFSWSWIRQPPGKGLEWIGSFYYGEKTYYNPSLKSRATISIDTSKSQFSLKLSSVTAADTAVYYCPRGPTMIRGVIDSWGQGTLVTVSS VL: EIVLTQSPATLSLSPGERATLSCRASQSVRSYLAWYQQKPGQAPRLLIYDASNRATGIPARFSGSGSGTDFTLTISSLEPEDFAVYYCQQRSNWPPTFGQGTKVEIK . Is its Kd below 200 pM? 0.0
